# study target: C-domain fragment of calmodulin, residues 76–148 (rat, UniProt P0DP29 77-149)
# assay details: fluorescence polarisation
Where no end group is shown, it is not given here.
Each entry below carries its recorded Kd.

{"columns": ["binder", "Kd"],
 "data": [
  ["{5,6‑carboxyfluorescein}-ATFLIQEYFRKFKKRKEQGLVGKPSQ [Fl-IQ′_(1650): IQ′_(1650) (residues 1650–1675 of Cav1.2 CTT) fluoresceinated at the N-terminus]", "≤ 10 nM"],
  ["{5,6‑carboxyfluorescein}-ELRAIIKKIWKRTSMKLLDQVV [Fl-C_(1614): C_(1614) (residues 1614–1635 of Cav1.2 CTT) fluoresceinated at the N-terminus]", "≤ 70 nM"]
]}
